All values here come from paper PMC11784200.

tested on: E. coli colonies that became resistant to CHL after CIP treatment; assay type: cell-based; details: colony 25; plates with 2× MIC after 24 h on LB without selection
Measurement Name: Antibiotic resistance

>>> reading("[H]/N=C(/N)N[C@H]1[C@H](O)[C@@H](O)[C@H](O[C@@H]2O[C@@H](C)[C@](O)(C=O)[C@H]2O[C@@H]2O[C@@H](CO)[C@H](O)[C@@H](O)[C@@H]2NC)[C@@H](N/C(N)=N\\[H])[C@@H]1O")
"No"
>>> reading("Oc1cc(Cl)ccc1Oc1ccc(Cl)cc1Cl")
"No"
>>> reading("O=C(N[C@H](CO)[C@H](O)c1ccc([N+](=O)[O-])cc1)C(Cl)Cl")
"Yes"
>>> reading("CC1(C)S[C@@H]2[C@H](NC(=O)[C@H](N)c3ccccc3)C(=O)N2[C@H]1C(=O)O")
"No"

====

tested on: E. coli colonies that became resistant to CHL after CIP treatment; assay type: cell-based; conditions: colony 7; plates with 2× MIC after 24 h on LB without selection
Measurement Name: Antibiotic resistance

>>> reading("CC1(C)S[C@@H]2[C@H](NC(=O)[C@H](N)c3ccccc3)C(=O)N2[C@H]1C(=O)O")
"No"
>>> reading("O=C(N[C@H](CO)[C@H](O)c1ccc([N+](=O)[O-])cc1)C(Cl)Cl")
"Yes"
>>> reading("[H]/N=C(/N)N[C@H]1[C@H](O)[C@@H](O)[C@H](O[C@@H]2O[C@@H](C)[C@](O)(C=O)[C@H]2O[C@@H]2O[C@@H](CO)[C@H](O)[C@@H](O)[C@@H]2NC)[C@@H](N/C(N)=N\\[H])[C@@H]1O")
"No"
>>> reading("Oc1cc(Cl)ccc1Oc1ccc(Cl)cc1Cl")
"Yes"

====

test system: E. coli colonies that became resistant to CHL after CIP treatment; format: cell-based; settings: colony 23; plates with 2× MIC after 24 h on LB without selection
Measurement Name: Antibiotic resistance

>>> reading("Oc1cc(Cl)ccc1Oc1ccc(Cl)cc1Cl")
"No"
>>> reading("CC1(C)S[C@@H]2[C@H](NC(=O)[C@H](N)c3ccccc3)C(=O)N2[C@H]1C(=O)O")
"No"
>>> reading("O=C(N[C@H](CO)[C@H](O)c1ccc([N+](=O)[O-])cc1)C(Cl)Cl")
"Yes"
>>> reading("[H]/N=C(/N)N[C@H]1[C@H](O)[C@@H](O)[C@H](O[C@@H]2O[C@@H](C)[C@](O)(C=O)[C@H]2O[C@@H]2O[C@@H](CO)[C@H](O)[C@@H](O)[C@@H]2NC)[C@@H](N/C(N)=N\\[H])[C@@H]1O")
"No"

====

test system: E. coli colonies that became resistant to CHL after CIP treatment; type: cell-based; conditions: colony 27; plates with 2× MIC after 24 h on LB without selection
Measurement Name: Antibiotic resistance

>>> reading("O=C(N[C@H](CO)[C@H](O)c1ccc([N+](=O)[O-])cc1)C(Cl)Cl")
"Yes"
>>> reading("Oc1cc(Cl)ccc1Oc1ccc(Cl)cc1Cl")
"No"
>>> reading("CC1(C)S[C@@H]2[C@H](NC(=O)[C@H](N)c3ccccc3)C(=O)N2[C@H]1C(=O)O")
"No"
>>> reading("[H]/N=C(/N)N[C@H]1[C@H](O)[C@@H](O)[C@H](O[C@@H]2O[C@@H](C)[C@](O)(C=O)[C@H]2O[C@@H]2O[C@@H](CO)[C@H](O)[C@@H](O)[C@@H]2NC)[C@@H](N/C(N)=N\\[H])[C@@H]1O")
"No"
